pIC50: −log10 of the molar value.
UniProtKB P48736 pIC50, compiled from various sources.
quantity_measured: pIC50

Cn1ncc2c(Oc3ccc(C(N)=O)cc3)nc(-c3ccccc3)nc21 :: 5.77
Cn1cc(/C=C2\Oc3cccc(O)c3C2=O)c2c(N3CCC(C(=O)N4CCCC4)CC3)ccnc21 :: 7.49
C#Cc1cccc2cc([C@H](C)NC(=O)c3c(N)nn4cccnc34)n(-c3ccccc3)c(=O)c12 :: > 7.00
C[C@H](NC(=O)c1nc(C#N)cnc1N)c1cc2cccc(Cl)c2c(=O)n1-c1ccccc1 :: 6.00 to 7.00
C[C@H](NC(=O)c1c(N)nn2c1NCCC2)c1cc2cccc(Cl)c2c(=O)n1-c1ccccc1 :: < 5.00
C[C@H](NC(=O)c1c(N)nn2cccnc12)c1c(Br)c2cccc(Cl)c2c(=O)n1-c1ccccc1 :: > 7.00
C=C(C)C(=O)CCCC(=O)N1CCN(Cc2cc3nc(-c4cccc5[nH]ncc45)nc(N4CCOCC4)c3s2)CC1 :: < 6.00
Cn1ncc2c(Oc3ccc4[nH]ccc4c3)nc(-c3cccc(-c4ccccc4)c3)nc21 :: < 5.00
Cc1nc(NCCCN[C@@H](CC(C)C)C(=O)OC2CCCC2)sc1-c1ccc(Cl)c(S(C)(=O)=O)c1 :: < 6.00
C[C@H](NC(=O)c1c(N)nn2cccnc12)c1cc2cccc(Cl)c2c(=O)n1CCN(C)C :: 5.00 to 6.00
C[C@H](Nc1c(C#N)cnc2cccnc12)c1cc2cccc(Cl)c2c(=O)n1-c1cccc(F)c1 :: 5.00 to 6.00
COc1ccccc1-n1c(Cn2nc(-c3cccc(O)c3)c3c(N)ncnc32)cc2cccc(C)c2c1=O :: > 7.00
C[C@H](NC(=O)c1c(N)nn2cccnc12)c1cc2cccc(-c3cccs3)c2c(=O)n1-c1ccccc1 :: 6.00 to 7.00
CCC(CC)NC(=O)C(C)Cn1cnc2ccc(-c3cnc(OC)c(NS(=O)(=O)c4ccc(F)cc4Cl)c3)cc2c1=O (single isomer, unassigned) :: 6.81
C[C@H](NC(=O)c1c(N)nn2cccnc12)c1cc2cccc(Cl)c2c(=O)n1CC(=O)N(C)C :: < 5.00
Cn1cc(-c2cccc3cc(C4CCCN4c4nc(N)nc(N)c4C#N)c(N4CCOCC4)nc23)c2cc[nH]c2c1=O (centres unmarked) :: 8.70
Cn1cc(/C=C2\Oc3cccc(O)c3C2=O)c2c(N3CCC(C(=O)N4CCN(CCO)CC4)CC3)ccnc21 :: 6.80
CC[C@H](NC(=O)c1c(N)nn2cccnc12)c1cc2cccc(Cl)c2c(=O)n1-c1ccccc1 :: 6.00 to 7.00
CC(=O)Nc1ncc(-c2cccc3cc([C@H](C)NC(=O)c4c(N)nn5cccnc45)n(-c4ccccc4)c(=O)c23)s1 :: 6.00 to 7.00
COc1ccc(-c2cnc(N)c(C(=O)N[C@@H](C)c3cc4cccc(Cl)c4c(=O)n3-c3ccccc3)n2)cc1F :: 5.00 to 6.00
Cc1nc(NC(=O)N[C@@H](COC(C)(C)C)C(=O)OC2CCCC2)sc1-c1ccc(Cl)c(S(C)(=O)=O)c1 :: 6.00 to 7.00
CNC(=O)Nc1ccc2c(c1)C(=O)/C(=C/c1cn(C)c3nccc(N4CCC(C(=O)N(C)C)CC4)c13)O2 :: 6.31
Cc1ccccc1-n1c(Cn2nc(CCC(=O)N3CCOCC3)c3c(N)ncnc32)cc2cccc(C)c2c1=O :: < 5.00
Cc1cccc2cc([C@H](C)Nc3ncnc4[nH]nc(C(N)=O)c34)n(-c3ccccc3)c(=O)c12 :: > 7.00
CC(=O)NCCOc1nc([C@H](C)Nc2ncnc3[nH]cnc23)cc2cccc(Cl)c12 :: > 6.00
C[C@H](Nc1ncnc2[nH]cnc12)c1cc2cccc(Cl)c2c(C(=O)N2CC3CCC(C2)O3)n1 :: > 6.00
C[C@H](Nc1ncnc2cccc(F)c12)c1cc2cccc(-c3cnc(F)nc3)c2c(=O)n1-c1ccccc1 :: 5.70
COc1cncc(-c2cccc3cc([C@H](C)NC(=O)c4c(N)nn5cccnc45)n(-c4ccccc4)c(=O)c23)c1 :: > 7.00
C[C@@H]1CN(C2CN(c3cnc4ccc(-c5ccc6oc(N)nc6c5)nc4n3)C2)CCN1 :: < 5.00
